Values from PubChem BioAssay AID1996

Entries and their measured solubility kinetic follow.
details: buffer; pH 7.4; 200.0 µM

Task: Supply recorded solubility kinetic for CC1CCCCN1CC(O)COCc1ccc(Cl)cc1 (stereo unspecified) here.
Result: 29.1 µg/mL

Task: Supply recorded solubility kinetic for CC(Sc1nc(N)cc(N)n1)C(=O)NCC1CCCO1 (stereo unspecified) here.
Result: > 44.6 µg/mL

Next:
Task: Supply recorded solubility kinetic for CC1CCCC(NC(=O)COC(=O)c2ccc([N+](=O)[O-])o2)C1C (stereo unspecified) here.
Result: 18.4 µg/mL

Task: Supply recorded solubility kinetic for Cc1c(NC(=O)c2ccc(NS(=O)(=O)c3ccc(F)c(F)c3)cc2)c(=O)n(-c2ccccc2)n1C here.
Result: > 74.8 µg/mL

Task: Supply recorded solubility kinetic for COc1ccc(C(=O)Nc2ccc(C3CC3(Cl)Cl)cc2)cc1 (stereo unspecified) here.
Result: < 0.7 µg/mL

Task: Supply recorded solubility kinetic for COc1ccc(NC(=S)NCc2ccc3c(c2)OCO3)cc1 here.
Result: > 47.5 µg/mL

---

conditions: buffer; pH 7.4; 200.0 µM
observedProperty: solubility kinetic

Task: Supply recorded solubility kinetic for CC(C)C(C(=O)NC1=NCCS1)c1ccc(Cl)cc1 (configuration not stated) here.
Result: 1.7 µg/mL

Task: Supply recorded solubility kinetic for O=C1NC(=Nc2ccc(F)cc2)SC1Cc1ccc(F)cc1 (configuration not stated) here.
Result: 1 µg/mL

Task: Supply recorded solubility kinetic for Cc1ccc2oc(=O)n(CCCOc3ccccc3C)c2c1 here.
Result: 0.9 µg/mL

Next:
Task: Supply recorded solubility kinetic for CC(C)CCCC(C)CCOC(=O)CN1CCCC1 (configuration not stated) here.
Result: 1.9 µg/mL

Task: Supply recorded solubility kinetic for CN(C)/C(=N\S(=O)(=O)c1ccccc1)c1ccccc1 here.
Result: > 43.3 µg/mL

Task: Supply recorded solubility kinetic for Cc1cc(C)cc(NC(=O)C2CC3CCC2C3)c1 (configuration not stated) here.
Result: 6.8 µg/mL

Task: Supply recorded solubility kinetic for Cc1ccc(SCCNCc2ccco2)cc1.Cl here.
Result: 27.9 µg/mL

---

conditions: buffer; pH 7.4; 200.0 µM
observedProperty: log10 solubility kinetic (log10 of the value in µg/mL)
Form field - Quantity: solubility kinetic; Unit: µg/mL; Scale: log10

Task: Supply recorded log10 solubility kinetic for O=C(NC1CCN(Cc2ccccc2)CC1)c1ccccc1Cl here.
Result: 1.55

Task: Supply recorded log10 solubility kinetic for CCCCC(=O)NC(=S)Nc1cc([N+](=O)[O-])ccc1OC here.
Result: -0.15

Next:
Task: Supply recorded log10 solubility kinetic for COc1cccc(/C=C2\SC(=N)N(c3ccc(F)cc3)C2=O)c1 here.
Result: -0.30

Task: Supply recorded log10 solubility kinetic for COc1ccc(S(=O)(=O)NCCc2ccncc2)cc1 here.
Result: 1.61

Task: Supply recorded log10 solubility kinetic for Cc1ccnc(SCC(=O)Nc2sccc2C#N)n1 here.
Result: 1.12

Task: Supply recorded log10 solubility kinetic for CCCCOc1ccc(C(=O)N=c2sccn2C)cc1OC here.
Result: 1.55

Task: Supply recorded log10 solubility kinetic for COc1ccc(C(C)NC(=O)C23CC4CC(CC(C4)C2)C3)cc1 (stereo not given) here.
Result: -0.10

Task: Supply recorded log10 solubility kinetic for COC(=O)c1sccc1NC(=S)Nc1cccc(F)c1 here.
Result: 1.54

Task: Supply recorded log10 solubility kinetic for O=C(CCc1ccc(S(=O)(=O)N2CCOCC2)cc1)OCC(=O)c1ccc(Br)cc1 here.
Result: 0.83
